- Target or system: GRK2 (Homo sapiens, UniProt P25098)
- Sequence (P25098 whole entry): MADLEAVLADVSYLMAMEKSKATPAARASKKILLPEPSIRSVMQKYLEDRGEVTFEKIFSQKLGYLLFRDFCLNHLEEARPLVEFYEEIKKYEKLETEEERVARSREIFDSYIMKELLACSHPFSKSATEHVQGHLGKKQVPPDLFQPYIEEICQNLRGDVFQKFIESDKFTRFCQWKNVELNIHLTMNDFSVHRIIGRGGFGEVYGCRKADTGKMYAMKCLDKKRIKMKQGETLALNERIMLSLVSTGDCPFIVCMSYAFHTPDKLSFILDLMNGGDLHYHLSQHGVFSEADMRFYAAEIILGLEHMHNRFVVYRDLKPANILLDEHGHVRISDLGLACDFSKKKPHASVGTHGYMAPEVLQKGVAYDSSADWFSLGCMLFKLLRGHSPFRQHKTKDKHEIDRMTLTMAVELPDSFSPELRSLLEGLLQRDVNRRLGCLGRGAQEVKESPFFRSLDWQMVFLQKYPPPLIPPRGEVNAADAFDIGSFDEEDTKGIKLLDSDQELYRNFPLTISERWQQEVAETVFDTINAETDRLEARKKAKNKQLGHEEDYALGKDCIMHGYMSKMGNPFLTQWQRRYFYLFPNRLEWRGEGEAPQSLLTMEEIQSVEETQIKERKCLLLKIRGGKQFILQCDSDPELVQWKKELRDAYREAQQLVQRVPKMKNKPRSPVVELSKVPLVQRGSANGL
- Experiment description: Second ADPGlo GRK2 Inhibition Assay (Example 3)
- Assay type: biochemical
- Particulars: ADP-Glo, 20 μM ATP; read-out: Second ADPGlo Enzymatic GRK2 Assay: IC50 (nM) (Example 3)
Property: IC50

Q: Under GRK2 (Homo sapiens, UniProt P25098): IC50 value of Cc1ncsc1-c1ccc(CNC(=O)[C@@H]2C[C@@H](O)CN2C(=O)[C@@H](NC(=O)COCCOCCCCCCOc2cccc(CNC(=O)c3cccc(NCc4nnc(-c5ccncn5)n4C)c3)c2)C(C)(C)C)cc1 [Compound D101] ?
Ans: < 100 nM

Q: Under GRK2 (Homo sapiens, UniProt P25098): IC50 value of Cn1c(CNc2cccc(C(=O)NCc3cccc(OCCCCCCOCCOCCOCCCCCC(=O)Nc4cccc5c4CN(C4CCC(=O)NC4=O)C5)c3)c2)nnc1-c1ccncn1 (stereo not drawn) [Compound D73] ?
Ans: < 100 nM

Q: Under GRK2 (Homo sapiens, UniProt P25098): IC50 value of Cc1ncsc1-c1ccc(CNC(=O)[C@@H]2C[C@@H](O)CN2C(=O)[C@@H](NC(=O)CCCCc2cn(CCCCCCCOc3cccc(CNC(=O)c4cccc(NCc5nnc(-c6ccncn6)n5C)c4)c3)nn2)C(C)(C)C)cc1 [Compound D82] ?
Ans: < 100 nM

====

- Target or system: GRK2 (Homo sapiens, UniProt P25098)
- Experiment description: GRK2 Inhibition Assay (TR-FRET, Example 1)
- Format: biochemical
- Particulars: TR-FRET, 7 μM ATP; read-out: Enzymatic GRK2 Assay: IC50 (nM) (Example 1)
Property: IC50

Q: Which IC50 value is on record for CN[C@@H](C)C(=O)N[C@H](C(=O)N1CCC[C@H]1c1nc(C(=O)c2cccc(OCc3cn(CCCCCCOc4cccc(CNC(=O)c5cccc(NCc6nnc(-c7ccncn7)n6C)c5)c4)nn3)c2)cs1)C1CCCCC1 [Compound D102] ?
Ans: < 100 nM

Q: Which IC50 value is on record for Cc1ncsc1-c1ccc(CNC(=O)[C@@H]2C[C@@H](O)CN2C(=O)[C@@H](NC(=O)CCCCCOCCOCCOCCCCCCOc2ccc(F)c([C@@H](C)NC(=O)c3cccc(NCc4nnc(-c5ccncn5)n4C)c3)c2)C(C)(C)C)cc1 [Compound D75] ?
Ans: < 100 nM

Q: Which IC50 value is on record for C[C@H](NC(=O)c1cccc(NCc2nnc(-c3ccncn3)n2C)c1)c1cccc(OCCCCCCOCCOCCOCCCCCC(=O)Nc2cccc3c2CN(C2CCC(=O)NC2=O)C3=O)c1 (some centres unmarked) [Compound D55] ?
Ans: < 100 nM

Q: Which IC50 value is on record for C[C@@H](NC(=O)c1cccc(NCc2nnc(-c3ccncn3)n2C)c1)c1cc(OCCCCCCOCCOCCOCCCCCC(=O)Nc2cccc3c2CN(C2CCC(=O)NC2=O)C3=O)ccc1F (some centres unmarked) [Compound D54] ?
Ans: < 100 nM

Q: Which IC50 value is on record for Cc1ncsc1-c1ccc(CNC(=O)[C@@H]2C[C@@H](O)CN2C(=O)[C@@H](NC(=O)CCCCCOCCOCCOCCCCCCOc2ccc(CNC(=O)c3cccc(NCc4nnc(-c5ccncn5)n4C)c3)cc2)C(C)(C)C)cc1 [Compound D87] ?
Ans: < 100 nM
